molecular target: Cannabinoid receptor 2 (Homo sapiens); assay: Displacement of [3H]-WIN55212-2 from human CB2 receptor transfected in CHO cells membrane incubated for 90 mins; format: cell membranes
pKi: −log10 of the molar value.
Parameter: pKi

Enter reported pKi observed with Cannabinoid receptor 2 (Homo sapiens) for "Cc1s/c(=N\C(=O)C2C(C)(C)C2(C)C)n(CCCC[18F])c1C"
9.40

Enter reported pKi observed with Cannabinoid receptor 2 (Homo sapiens) for "O=C(Nc1cccnc1)c1cc2cccnc2n(CCCCF)c1=O"
< 5.00

Enter reported pKi observed with Cannabinoid receptor 2 (Homo sapiens) for "O=C(NC12CC3CC(CC(C3)C1)C2)c1cc2cccnc2n(Cc2ccc(F)cc2)c1=O"
< 6.00

Enter reported pKi observed with Cannabinoid receptor 2 (Homo sapiens) for "O=C(NC12CC3CC(CC(C3)C1)C2)c1cc2cccnc2n(CCOCCF)c1=O"
< 6.00

###

assay: Metabolic stability in CD-1 mouse plasma assessed as parent compound remaining measured after 30 mins by radio-HPLC analysis; format: ADME, cell-free; conditions: read-out: Stability
Parameter: remaining at 0.5 h
Don't forget the unit after the number, please.

What measured remaining at 0.5 h goes with "[2H]C([2H])([18F])C([2H])([2H])C([2H])([2H])C([2H])([2H])n1c(=O)c(C(=O)NC23CC4CC(CC(C4)C2)C3)cc2cccnc21" ?
23%

###

biological target: Cannabinoid receptor 2 (Homo sapiens, UniProt P34972); assay: Displacement of [3H]-WIN55212-2 from human CB2 receptor transfected in CHO cells membrane incubated for 90 mins; assay type: cell membranes
Sequence (P34972 whole entry): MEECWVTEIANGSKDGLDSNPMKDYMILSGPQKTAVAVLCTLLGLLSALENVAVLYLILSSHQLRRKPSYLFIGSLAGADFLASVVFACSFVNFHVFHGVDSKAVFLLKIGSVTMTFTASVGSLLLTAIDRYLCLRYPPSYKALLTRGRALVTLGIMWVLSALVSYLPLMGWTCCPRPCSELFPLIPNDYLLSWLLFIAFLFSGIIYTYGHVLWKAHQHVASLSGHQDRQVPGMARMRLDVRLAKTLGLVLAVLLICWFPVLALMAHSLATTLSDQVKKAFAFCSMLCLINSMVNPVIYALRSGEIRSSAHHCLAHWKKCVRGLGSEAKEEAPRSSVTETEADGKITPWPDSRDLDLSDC
Parameter: Ki

What measured Ki goes with "O=C(Nc1ccc(F)cc1)c1cc2cccnc2n(CCCCF)c1=O" ?
> 10 µM

What measured Ki goes with "O=C(Nc1ccncc1)c1cc2cccnc2n(CCCCF)c1=O" ?
> 10 µM

What measured Ki goes with "O=C(NCc1ccc(F)cc1)c1cc2cccnc2n(CCCCF)c1=O" ?
> 10 µM

What measured Ki goes with CC1CCC(NC(=O)c2cc3cc(Br)cnc3n(CCCCF)c2=O)CC1 (mixture of isomers) ?
> 10 µM

What measured Ki goes with "O=C(Nc1ccccc1)c1cc2cccnc2n(CCCCF)c1=O" ?
> 10 µM

What measured Ki goes with "O=C(NC12CC3CC(CC(C3)C1)C2)c1cc2cccnc2n(CCCCF)c1=O" ?
> 1 µM

###

target: Cannabinoid receptor 1 (Homo sapiens, UniProt P21554); test: Displacement of [3H]-SR141716A from recombinant human CB1 receptor expressed in CHO cells membrane incubated for 90 mins
Sequence (P21554 whole entry): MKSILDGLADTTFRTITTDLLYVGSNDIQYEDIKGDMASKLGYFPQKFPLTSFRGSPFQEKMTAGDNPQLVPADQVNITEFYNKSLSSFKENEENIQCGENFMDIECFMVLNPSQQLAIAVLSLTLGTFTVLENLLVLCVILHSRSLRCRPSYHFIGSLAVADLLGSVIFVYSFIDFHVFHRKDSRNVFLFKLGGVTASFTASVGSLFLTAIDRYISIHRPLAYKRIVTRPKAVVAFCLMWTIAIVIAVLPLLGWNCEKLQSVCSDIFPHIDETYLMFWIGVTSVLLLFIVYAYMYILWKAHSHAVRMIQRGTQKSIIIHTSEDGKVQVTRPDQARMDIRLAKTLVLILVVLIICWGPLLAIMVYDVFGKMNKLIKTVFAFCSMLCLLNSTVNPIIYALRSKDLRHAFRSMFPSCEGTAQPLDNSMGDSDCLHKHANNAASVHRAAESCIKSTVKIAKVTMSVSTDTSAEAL
// boundary case: Ki equal to 10 nM maps to f; strictly smaller maps to t

Take the compound "O=C(NC12CC3CC(CC(C3)C1)C2)c1cc2cccnc2n(CCCCF)c1=O" and say whether its Ki is less than 10 nM.
t

Take the compound "C[C@H]1CC[C@@H](NC(=O)c2cc3cccnc3n(CCCCF)c2=O)CC1" and say whether its Ki is less than 10 nM.
t

Take the compound "C[C@H]1CC[C@H](NC(=O)c2cc3cc(-c4ccco4)cnc3n(Cc3ccccc3F)c2=O)CC1" and say whether its Ki is less than 10 nM.
f

Take the compound "O=C(Nc1ccncc1)c1cc2cccnc2n(CCCCF)c1=O" and say whether its Ki is less than 10 nM.
f

Take the compound "C[C@H]1CC[C@@H](NC(=O)c2cc3cc(-c4ccco4)cnc3n(Cc3cccc(F)c3)c2=O)CC1" and say whether its Ki is less than 10 nM.
t

Take the compound "O=C(Nc1ccc(F)cc1)c1cc2cccnc2n(CCCCF)c1=O" and say whether its Ki is less than 10 nM.
f

Take the compound "C[C@H]1CC[C@@H](NC(=O)c2cc3cccnc3n(CCCF)c2=O)CC1" and say whether its Ki is less than 10 nM.
f

Take the compound "O=C(Nc1ccccc1)c1cc2cccnc2n(CCCCF)c1=O" and say whether its Ki is less than 10 nM.
f

Take the compound "C[C@H]1CC[C@@H](NC(=O)c2cc3cccnc3n(CCOCCF)c2=O)CC1" and say whether its Ki is less than 10 nM.
f
